meta.source: the Deep4Chem optical property database

Measured emission maximum values are reported for all entries that follow.
- ASSAY NOTES: solvent given as SMILES
- PROTOCOL CONDITIONS: in Cc1ccccc1
MEASURED ENDPOINT: emission maximum

{"COMPOUND": "c1ccc(-c2nc(-c3ccccc3)nc(-c3ccccc3-n3c4ccccc4c4c5oc6ccccc6c5ccc43)n2)cc1", "REPORTED VALUE": "474.61 nm"}
{"COMPOUND": "COc1cc(/C=C/c2ccccn2)c(OC)cc1C=O", "REPORTED VALUE": "444 nm"}
{"COMPOUND": "Cc1cc(C)c(B(c2c(C)cc(C)cc2C)N2c3ccccc3C3(c4ccccc4-c4ccccc43)c3ccccc32)c(C)c1", "REPORTED VALUE": "538 nm"}
{"COMPOUND": "CN(C)c1ccc(C2=Nc3sc4c(F)c(F)c(F)c(F)c4[n+]3[B-](F)(F)O2)cc1", "REPORTED VALUE": "464 nm"}
{"COMPOUND": "Cc1csc2[n+]1[B-](F)(F)n1c(c3cccc4cccc1c43)=N2", "REPORTED VALUE": "502 nm"}
